- Test system: NCI-H322M lung
- procedure.text: NCI-60 one-dose screen, 48 h
- condition.set: 10 µM
About 83,000 compounds went through this panel and 20% of them were active in at least one assay; those are over-represented in the sample as a whole. Calls of active or inactive are those of the source. How the source made its calls: active means growth percent below 10; inactive means the rest.
Parameter call: string, one of active, inactive

- chemical.string: "CC(=O)NCC1=C(C)C=C2C(=O)[C@](C)(O)C3(CC3)C(C)=C21"
  study.target: "NCI-H322M lung"
  qualitative.label: "active"
- chemical.string: "CCCCCCCCCCCCCCCCCCCC(=O)NCCc1c[nH]c2ccc(OC(=O)CCCC(=O)OCCOOCCOOCCOOCCOOCCOOCCOOCCOOCCOOCCOOCCOOCCOOCCOC)cc12"
  study.target: "NCI-H322M lung"
  qualitative.label: "inactive"

Now for a further compound.
Ask | Please share the test call associated with COc1ccc2[nH]cc(/C=N/Nc3ccc(Br)cn3)c2c1 .
Reply | inactive

---

- Test system: NCI-H226 lung
- procedure.text: NCI-60 one-dose screen, 48 h (100 = growth as untreated, 0 = no growth, -100 = all killed)
- condition.set: 10 µM
About 83,000 compounds went through this panel and 20% of them were active in at least one assay; those are over-represented in the sample as a whole.
property: growth (%)
Supply the numeric figure in %, leaving out any unit text.

// worked examples, growth included
- compound: "COc1ccc(-c2nc(S(=O)(=O)c3ccc(C)cc3)c(S(=O)(=O)CC(=O)N(C)Cc3ccccc3)o2)cc1"
  unit.abbreviation: "%"
  growth: 78.7
- compound: "COC(=O)C[C@](O)(CCCC(C)(C)O)C(=O)O[C@H]1C(OC)=C[C@@]23CCC(=O)N2CCc2cc4c(cc2[C@@H]13)OCO4"
  unit.abbreviation: "%"
  growth: 79.4

Pending compound:
Ask | Report growth for CC1CC(c2ccc(N(C)C)cc2)=NN1c1nc(O)c(C2=c3cc(Br)ccc3=NC2=O)s1 (stereo not drawn) please.
Reply | 77.8

---

- System: NCI-H226 lung
- procedure.text: NCI-60 one-dose screen, 48 h
- condition.set: 10 µM
This is part of a sample that, as a whole, favours compounds with a hit. Of some 83,000 tested, about 20% had one in any assay. Active and inactive are the calls of the source. How the source made its calls: active means growth percent below 10; inactive means the rest.
Parameter call: string, one of active, inactive

Ask | Please share the test call associated with O=C(Nc1ccccc1)Nc1nc2ccccc2s1 .
Reply | inactive

Ask | Please share the test call associated with Cc1ccc(NC(=O)NCn2c(=O)[nH]c3ccccc3c2=O)cc1 .
Reply | inactive

Ask | Please share the test call associated with COc1cc(/C=C/C(=O)c2ccc(F)cc2)ccc1Oc1nc(Nc2ccc(F)cc2)nc(N(C)C)n1 .
Reply | inactive

Ask | Please share the test call associated with CN1C(=O)N(C)C2SC(N/N=C/c3ccc(F)cc3)=NC21 (configuration not stated) .
Reply | inactive

Ask | Please share the test call associated with COc1ccc(-c2nc(S(=O)(=O)c3ccccc3)c(S(C)(=O)=O)o2)cc1 .
Reply | inactive

Ask | Please share the test call associated with Cc1ccc([N+](=O)[O-])c(C(=O)Nc2ccc(-c3ccc4c(c3)NC(=O)/C4=C\c3ccc[nH]3)cc2)c1 .
Reply | inactive

Ask | Please share the test call associated with Cc1nn(-c2ccccc2)c2ncn(CC(=O)N/N=C/c3c[nH]c4ccccc34)c(=O)c12 .
Reply | inactive

Ask | Please share the test call associated with O=C(NC(=S)N1CCN(c2ncnc3c2cnn3-c2ccccc2)CC1)c1ccc(Cl)cc1 .
Reply | inactive

---

- Tested on: OVCAR-8 ovarian
- procedure.text: NCI-60 one-dose screen, 48 h (100 = growth as untreated, 0 = no growth, -100 = all killed)
- condition.set: 10 µM
Compounds without any hit were thinned out: in the full panel of roughly 83,000, 20% have a hit.
Each entry below lists one item and its recorded growth value.
Supply the numeric figure in %, leaving out any unit text.

- molecule: "Cc1cc(C)cc(Oc2cccc(-c3c(C)nnn3C3CCN(CCN(C)C)CC3)n2)c1"
  growth (%): 35.9

Ask | What measured growth is associated with O=C1Nc2cc(Cl)ccc2/C1=C/c1cccc(OCc2ccccc2)c1 on OVCAR-8 ovarian?
Reply | -65

Ask | What measured growth is associated with O=C(NO)c1ccc(CNC(=O)[C@H]2Cc3c([nH]c4ccccc34)[C@H](c3ccccc3)N2)cc1 on OVCAR-8 ovarian?
Reply | 24.7

Ask | What measured growth is associated with Cc1ccn2c(C(=O)c3ccccc3)cc(-c3cc(-c4ccc(N(C)C)cc4)c(C#N)c(N)n3)c2c1 on OVCAR-8 ovarian?
Reply | 15.1

Ask | What measured growth is associated with CN1CCN(c2ccc(Nc3nc(NCCCNC(=O)C4CCCCC4)c4sccc4n3)cc2)CC1 on OVCAR-8 ovarian?
Reply | 57.5

Ask | What measured growth is associated with O=C(NO)c1ccc(Cn2ccc3c(Nc4ccccc4)ncnc32)cc1 on OVCAR-8 ovarian?
Reply | -21.4

Ask | What measured growth is associated with NS(=O)(=O)c1ccc(NC(=O)CSc2ccc(-c3ccc(Cl)cc3)nn2)c(Br)c1 on OVCAR-8 ovarian?
Reply | 3.04

Ask | What measured growth is associated with C=C1CCC2C3(C)COC(c4cccc(F)c4)OC3CCC2(C)C1CC(O)C1=CCOC1=O (stereo not given) on OVCAR-8 ovarian?
Reply | 15.1

Ask | What measured growth is associated with O=C(CNc1nc(-c2ccccc2)cs1)Nc1ccc([N+](=O)[O-])cc1 on OVCAR-8 ovarian?
Reply | 17.7

Ask | What measured growth is associated with CNC(=O)c1cccc(N2CCc3c2ccc(NC(=O)Nc2ccc(N4CCN(C)CC4)c(C(F)(F)F)c2)c3F)c1 on OVCAR-8 ovarian?
Reply | -83.4

Ask | What measured growth is associated with C/C(=N\N=C\c1ccc(Cl)c([N+](=O)[O-])c1)c1ccc2c(c1)Nc1ccccc1S2 on OVCAR-8 ovarian?
Reply | 6.83

Ask | What measured growth is associated with O=[N+]([O-])c1ccc(-c2nc(-c3ccccc3)c(-c3ccccc3)n2-c2ccc(S(=O)(=O)Nc3ncccn3)cc2)cc1 on OVCAR-8 ovarian?
Reply | 54.5

Ask | What measured growth is associated with O=C1CCC(N2Cc3cc(CC(=O)Nc4ccc(N5CCCCC5)cc4)ccc3C2=O)C(=O)N1 (stereo not given) on OVCAR-8 ovarian?
Reply | 20.9

Ask | What measured growth is associated with O=C(Cn1nc(-c2ccccc2)ccc1=O)NN1C(=O)c2ccccc2C1=O on OVCAR-8 ovarian?
Reply | 81.9

Ask | What measured growth is associated with O=C(CSc1nnc(-c2c[nH]c3ccccc23)n1-c1ccccc1)Nc1ccc(C(=O)/C=C/c2ccc(Cl)cc2)cc1 on OVCAR-8 ovarian?
Reply | 85.5

Ask | What measured growth is associated with COc1ccc2[nH]c(=O)c(CSc3cccc(N)c3)cc2c1 on OVCAR-8 ovarian?
Reply | 59.2

Ask | What measured growth is associated with CC[C@]12C=CCN3CC[C@@]4(c5cc(C#CCNc6ccc(C)c(Nc7nccc(-c8cccnc8)n7)c6)c(OC)cc5N(C)[C@H]4[C@@](O)(C(=O)OC)[C@@H]1OC(C)=O)C32 (stereo not given in full) on OVCAR-8 ovarian?
Reply | 48.6

Ask | What measured growth is associated with Cn1cc(-c2cc(N)n3nc(-c4c[nH]c5ccc(Br)cc45)cc3n2)c2cc(Br)cnc21 on OVCAR-8 ovarian?
Reply | -41.6

---

- Test system: KM12 colon
- procedure.text: NCI-60 one-dose screen, 48 h (100 = growth as untreated, 0 = no growth, -100 = all killed)
- condition.set: 10 µM
This is part of a sample that, as a whole, favours compounds with a hit. Of some 83,000 tested, about 20% had one in any assay.
Label t when growth is at or above -30%; anything below gets f.

- molecule: "Clc1ccc2c(N/N=C/c3c[nH]c4ccc(Br)cc34)ccnc2c1"
  qualitative.label: "f"
- molecule: "C=C(C)[C@@H]1CC[C@]2(C(=O)OC)CC[C@]3(C)[C@H](CC[C@@H]4[C@@]5(C)CC[C@H](N)C(C)(C)[C@@H]5CC[C@]43C)[C@@H]12"
  qualitative.label: "f"
- molecule: "CN1CCN(Cc2ccc(NC(=O)c3cncc(C#Cc4cnc5ccc(N[C@H]6CCOC6)nn45)c3)cc2C(F)(F)F)CC1"
  qualitative.label: "f"

Ask | Textbook exercise: given the entry CCOC(=O)N/C(=C1/OCCN1C)[P+](c1ccccc1)(c1ccccc1)c1ccccc1 , state whether its growth is greater than or equal to -30%.
Reply | t

Ask | Textbook exercise: given the entry CC(=O)Nc1ccc(-c2cn(-c3cccc(C(=O)Nc4cccc(OC(F)(F)F)c4)c3)nn2)cn1 , state whether its growth is greater than or equal to -30%.
Reply | t

Ask | Textbook exercise: given the entry Oc1ccc(/C=C2\CCCc3cc4ccc(O)cc4[o+]c32)c(O)c1 , state whether its growth is greater than or equal to -30%.
Reply | t

Ask | Textbook exercise: given the entry COc1ccc(C=CC(=O)c2ccc(-n3c(C)nc4c(cnn4-c4ccccc4)c3=O)cc2)cc1 , state whether its growth is greater than or equal to -30%.
Reply | t

Ask | Textbook exercise: given the entry COc1ccc2[nH]c(O)c(N=NC(=O)COc3ccc(NC(=O)Nc4ccc(Cl)c(Cl)c4)cc3)c2c1 , state whether its growth is greater than or equal to -30%.
Reply | f

Ask | Textbook exercise: given the entry COc1ccccc1NCc1ccc(CO)n1-c1ccc(C)cc1 , state whether its growth is greater than or equal to -30%.
Reply | t

Ask | Textbook exercise: given the entry COC(=O)CC1CC1C1Cc2c(nc(N(C)S(C)(=O)=O)nc2C(C)C)-c2ccc(F)cc21 (stereo unspecified) , state whether its growth is greater than or equal to -30%.
Reply | t

Ask | Textbook exercise: given the entry CN1CCN(c2ccc(Nc3nc(N4CCN(S(=O)(=O)c5ccc(F)cc5)CC4)c4sccc4n3)cc2)CC1 , state whether its growth is greater than or equal to -30%.
Reply | f
